System: RSV subgenomic replicon 395 HeLa and APC126
Assay: RSV subgenomic replicon assay (Renilla luciferase)
Type: cell-based
Conditions: human respiratory syncytial virus; RSV replicon cells (395 HeLa 7 days or APC126 3 days); Table G = less than 1 μM, Table H = equal to or higher than 1 μM and less than 50 μM
measured attribute: EC50

## Input Please indicate recorded EC50 of COc1cc(C(=O)NC[C@@](O)(c2cc3c(c(-c4ccc(F)cc4)n2)OC[C@@]3(C)NC2COC2)C(F)(F)F)ccc1OC[C@@H](C)O [Compound 131] measured with RSV subgenomic replicon 395 HeLa and APC126.
## Output < 1000 nM

## Input Please indicate recorded EC50 of COc1cc(C(=O)NCC(O)(c2cc(N3CCNCC3)cc(-c3ccc(F)cc3)n2)C(F)(F)F)ccc1OCCO (stereo not drawn) [Compound 138] measured with RSV subgenomic replicon 395 HeLa and APC126.
## Output 1000 to 50000 nM

## Input Please indicate recorded EC50 of COc1cc(C(=O)NCC(O)(c2nc(-c3ccc(F)cc3)cc3c2OC(C)(N)C3)C(F)(F)F)ccc1OC[C@@H](C)O (stereo partly drawn) [Compound 120] measured with RSV subgenomic replicon 395 HeLa and APC126.
## Output < 1000 nM

* * *

Give measured CC50 at 5 days for each item. Keep answers brief.
Assay: Cytotoxicity determination (CCK-8, without addition of virus)
Format: cell-based
Conditions: human, HEp-2 cells (uninfected), no virus, Table C = greater than 100 μM, Table D = equal to or less than 100 μM and greater than 10 μM

## Input Report measured CC50 at 5 days; entry is COc1ccc(C(=O)NCC(O)(c2cc(C(C)(C)N)cc(-c3ccc(F)cc3)n2)C(F)(F)F)cc1OCCO (stereo not shown)
## Output > 100 µM

## Input Report measured CC50 at 5 days; entry is COc1cc(C(=O)NC[C@@](O)(c2cc3c(c(-c4ccc(F)cc4)n2)OC[C@@]3(C)NO)C(F)(F)F)ccc1OC[C@@H](C)O
## Output 10 to 100 µM

## Input Report measured CC50 at 5 days; entry is COc1cc(C(=O)NC[C@@](O)(c2cc3c(c(-c4ccc(F)cc4)n2)OC[C@@]3(C)N)C(F)(F)F)cc2nc[nH]c12
## Output 10 to 100 µM

## Input Report measured CC50 at 5 days; entry is COc1cc(C(=O)NC[C@@](O)(c2cc3c(c(-c4ccc(F)cc4)n2)NC[C@@]3(C)N)C(F)(F)F)cc2cc[nH]c12
## Output 10 to 100 µM

## Input Report measured CC50 at 5 days; entry is COc1cc(C(=S)NCC(O)(c2cc3c(c(-c4ccc(F)cc4)n2)OCC3(C)N)C(F)(F)F)ccc1OCCO (stereo not shown)
## Output 10 to 100 µM

## Input Report measured CC50 at 5 days; entry is COc1cc(C(=O)NCC(O)(c2cc3c(c(-c4ccc(F)cc4)n2)OCC32CCN2)C(F)(F)F)ccc1OC[C@@H](C)O (stereo partly shown)
## Output 10 to 100 µM

## Input Report measured CC50 at 5 days; entry is COc1cc(C(=O)NCC(O)(c2cc3c(c(-c4ccc(F)cc4)n2)OCC3(C)N)C(F)(F)F)cc2c1NC(=O)CC2 (stereo not shown)
## Output 10 to 100 µM

## Input Report measured CC50 at 5 days; entry is COc1cc(C(=O)NCC(O)(c2cc3c(c(-c4ccc(F)cc4)n2)OCC3(C)N)C(F)(F)F)ccc1NC1CC1 (stereo not shown)
## Output 10 to 100 µM

## Input Report measured CC50 at 5 days; entry is C[C@@]1(N)COc2c1cc([C@@](O)(CNC(=O)c1ccc(OC3CC3)c(OCCO)c1)C(F)(F)F)nc2-c1ccc(F)cc1
## Output 10 to 100 µM

## Input Report measured CC50 at 5 days; entry is COc1cc(C(=O)NC[C@@](O)(c2cc3c(c(-c4ccc(F)cc4)n2)OC[C@@]3(C)N)C(F)(F)F)cc2ccc(C(C)(C)O)nc12
## Output 10 to 100 µM

## Input Report measured CC50 at 5 days; entry is COc1cc(C(=O)NC[C@@](O)(c2cc3c(c(-c4ccc(F)cc4)n2)NC[C@@]3(C)N)C(F)(F)F)ccc1OCC(N)=O
## Output > 100 µM

## Input Report measured CC50 at 5 days; entry is COc1cc(C(=O)NC[C@@](O)(c2cc3c(c(-c4ccc(F)cc4)n2)NC[C@@]3(C)N)C(F)(F)F)cc2cccnc12
## Output 10 to 100 µM

## Input Report measured CC50 at 5 days; entry is COc1nc(C(=O)NCC(O)(c2cc3c(c(-c4ccc(F)cc4)n2)OCC3(C)N)C(F)(F)F)cc2c1NC(=O)C2 (stereo not shown)
## Output 10 to 100 µM
